target: JAK3 (Homo sapiens, UniProt P52333)
Construct: All four purified enzymes contain only the catalytic domain; His (N)
Sequence (P52333 822-1111 limits assumed): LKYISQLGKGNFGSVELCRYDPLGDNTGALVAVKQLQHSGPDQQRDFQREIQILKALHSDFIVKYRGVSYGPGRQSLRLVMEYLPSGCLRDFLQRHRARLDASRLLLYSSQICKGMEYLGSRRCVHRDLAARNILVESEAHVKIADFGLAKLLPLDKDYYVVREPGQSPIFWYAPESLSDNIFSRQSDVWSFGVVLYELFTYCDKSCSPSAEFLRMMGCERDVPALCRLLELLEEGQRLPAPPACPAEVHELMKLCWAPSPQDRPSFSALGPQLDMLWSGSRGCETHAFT
methodSummary: JAK kinase assay (HTRF, phosphorylation of synthetic peptide), JAK3
setupConditions: catalytic domain, ATP at Km (2 μM); read-out: JAK3 kinase inhibitory activity (EC50)
measurementType: EC50

# input Form field - read-out: EC50; system: JAK3 (Homo sapiens, UniProt P52333); submitted item: CN(C1COC1)S(=O)(=O)N1CCN(c2ncnc3[nH]ccc23)CC12CC2 [Example 112]
# output < 0.1 µM

# input Form field - read-out: EC50; system: JAK3 (Homo sapiens, UniProt P52333); submitted item: CN(CC1CCS(=O)(=O)CC1)S(=O)(=O)N1CCN(c2ncnc3[nH]ccc23)CC12CC2 [Example 168]
# output < 0.1 µM

# input Form field - read-out: EC50; system: JAK3 (Homo sapiens, UniProt P52333); submitted item: N#CCN(C1CCC1)S(=O)(=O)N1CCN(c2ncnc3[nH]ccc23)CC12CC2 [Example 100]
# output < 0.1 µM

# input Form field - read-out: EC50; system: JAK3 (Homo sapiens, UniProt P52333); submitted item: CN(CCc1cccc(F)c1)S(=O)(=O)N1CCN(c2ncnc3[nH]ccc23)CC12CC2 [Example 17]
# output < 0.1 µM

# input Form field - read-out: EC50; system: JAK3 (Homo sapiens, UniProt P52333); submitted item: O=S(=O)(N(CCO)CCO)N1CCN(c2ncnc3[nH]ccc23)CC12CC2 [Example 54]
# output < 0.1 µM

# input Form field - read-out: EC50; system: JAK3 (Homo sapiens, UniProt P52333); submitted item: CN(C1CN(C(=O)CCO)C1)S(=O)(=O)N1CCN(c2ncnc3[nH]ccc23)CC12CC2 [Example 179]
# output 0.1 to 0.5 µM

# input Form field - read-out: EC50; system: JAK3 (Homo sapiens, UniProt P52333); submitted item: CN(Cc1ccccc1)S(=O)(=O)N1CCN(c2ncnc3[nH]ccc23)CC12CC2 [Example 52]
# output < 0.1 µM

# input Form field - read-out: EC50; system: JAK3 (Homo sapiens, UniProt P52333); submitted item: O=S1(=O)CCC(CN(CCO)S(=O)(=O)N2CCN(c3ncnc4[nH]ccc34)CC23CC3)CC1 [Example 170]
# output < 0.1 µM

# input Form field - read-out: EC50; system: JAK3 (Homo sapiens, UniProt P52333); submitted item: CC(C)N(C)S(=O)(=O)N1CCN(c2ncnc3[nH]ccc23)CC12CC2 [Example 94]
# output 0.1 to 0.5 µM

# input Form field - read-out: EC50; system: JAK3 (Homo sapiens, UniProt P52333); submitted item: O=S(=O)(NCCc1ccccc1)N1CCN(c2ncnc3[nH]ccc23)CC12CC2 [Int 5]
# output 0.1 to 0.5 µM

# input Form field - read-out: EC50; system: JAK3 (Homo sapiens, UniProt P52333); submitted item: CN(Cc1cccc(F)c1)S(=O)(=O)N1CCN(c2ncnc3[nH]ccc23)CC12CC2 [Example 78]
# output < 0.1 µM

# input Form field - read-out: EC50; system: JAK3 (Homo sapiens, UniProt P52333); submitted item: COc1ccc(CNS(=O)(=O)N2CCN(c3ncnc4[nH]ccc34)CC23CC3)cc1 [Example 195]
# output > 0.5 µM

# input Form field - read-out: EC50; system: JAK3 (Homo sapiens, UniProt P52333); submitted item: O=S1(=O)CCC(CN(CCO)S(=O)(=O)N2CCN(c3ncnc4[nH]ccc34)CC23CC3)C1 (centres unmarked) [Example 167]
# output < 0.1 µM

# input Form field - read-out: EC50; system: JAK3 (Homo sapiens, UniProt P52333); submitted item: CN(CC1CCC(F)(F)CC1)S(=O)(=O)N1CCN(c2ncnc3[nH]ccc23)CC12CC2 [Example 62]
# output < 0.1 µM

# input Form field - read-out: EC50; system: JAK3 (Homo sapiens, UniProt P52333); submitted item: CN(CC1CCCCO1)S(=O)(=O)N1CCN(c2ncnc3[nH]ccc23)CC12CC2 (centres unmarked) [Example 64]
# output 0.1 to 0.5 µM

# input Form field - read-out: EC50; system: JAK3 (Homo sapiens, UniProt P52333); submitted item: O=CNS(=O)(=O)N1CCN(c2ncnc3[nH]ccc23)CC12CC2 [Example 176]
# output 0.1 to 0.5 µM

# input Form field - read-out: EC50; system: JAK3 (Homo sapiens, UniProt P52333); submitted item: O=S(=O)(N(CCO)C1CCC1)N1CCN(c2ncnc3[nH]ccc23)CC12CC2 [Example 101]
# output < 0.1 µM

###

target: JAK2 (Homo sapiens)
Construct: All four purified enzymes contain only the catalytic domain; His (N)
Sequence (O60674 849-1124 limits assumed): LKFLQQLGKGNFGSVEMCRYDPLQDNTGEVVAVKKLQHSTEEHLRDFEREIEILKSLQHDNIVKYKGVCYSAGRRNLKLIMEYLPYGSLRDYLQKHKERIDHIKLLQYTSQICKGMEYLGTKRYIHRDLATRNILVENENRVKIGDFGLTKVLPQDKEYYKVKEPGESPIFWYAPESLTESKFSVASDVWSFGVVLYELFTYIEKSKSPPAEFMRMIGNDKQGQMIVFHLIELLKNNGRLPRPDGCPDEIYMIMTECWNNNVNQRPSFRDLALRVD
methodSummary: JAK kinase assay (HTRF, phosphorylation of synthetic peptide), JAK2
setupConditions: catalytic domain, ATP at Km (4 μM); read-out: JAK2 kinase inhibitory activity (EC50)
pEC50: −log10 of the molar value.
measurementType: pEC50

# input Find the recorded pEC50 belonging to CN(C(=O)C1CCC(F)(F)CC1)S(=O)(=O)N1CCN(c2ncnc3[nH]ccc23)CC12CC2 [Example 130] and report it.
# output > 7.00

# input Find the recorded pEC50 belonging to O=S(=O)(NCC1CCC(F)(F)CC1)N1CCN(c2ncnc3[nH]ccc23)CC12CC2 [Example 148] and report it.
# output > 7.00

# input Find the recorded pEC50 belonging to N#CC1CCCN(S(=O)(=O)N2CCN(c3ncnc4[nH]ccc34)CC23CC3)C1 (centres unmarked) [Example 42] and report it.
# output > 7.00

# input Find the recorded pEC50 belonging to O=S(=O)(N(CCO)CCOc1ccccc1)N1CCN(c2ncnc3[nH]ccc23)CC12CC2 [Example 111] and report it.
# output > 7.00

# input Find the recorded pEC50 belonging to O=S(=O)(NC1COC1)N1CCN(c2ncnc3[nH]ccc23)CC12CC2 [Int 41] and report it.
# output > 7.00

# input Find the recorded pEC50 belonging to O=S(=O)(N1CCCCC1)N1CCN(c2ncnc3[nH]ccc23)CC12CC2 [Example 38] and report it.
# output > 7.00

# input Find the recorded pEC50 belonging to CN(Cc1ccc(F)cc1)S(=O)(=O)N1CCN(c2ncnc3[nH]ccc23)CC12CC2 [Example 79] and report it.
# output > 7.00

# input Find the recorded pEC50 belonging to CC#CCN(CCc1ccccc1)S(=O)(=O)N1CCN(c2ncnc3[nH]ccc23)CC12CC2 [Example 23] and report it.
# output > 7.00

###

For each entry below, report its EC50 value.
target: JAK3 (Homo sapiens, UniProt P52333)
Construct: All four purified enzymes contain only the catalytic domain; His (N); purchased Carna Biosciences, Inc; host or cells: baculovirus expression system
methodSummary: JAK kinase assay (HTRF, phosphorylation of synthetic peptide), JAK3
Assay type: biochemical
setupConditions: catalytic domain, ATP at Km (2 μM); read-out: JAK3 kinase inhibitory activity (EC50)

# input Find the recorded EC50 belonging to CN(C[C@@H]1CC(F)(F)CN1C(=O)CCC#N)S(=O)(=O)N1CCN(c2ncnc3[nH]ccc23)CC12CC2 and report it.
# output < 100 nM

# input Find the recorded EC50 belonging to CN(CCCc1ccc(C#N)cc1)S(=O)(=O)N1CCN(c2ncnc3[nH]ccc23)CC12CC2 and report it.
# output 100 to 500 nM

# input Find the recorded EC50 belonging to CN(C[C@H]1CCCN1S(C)(=O)=O)S(=O)(=O)N1CCN(c2ncnc3[nH]ccc23)CC12CC2 and report it.
# output < 100 nM

# input Find the recorded EC50 belonging to CN(CCOc1ccc(C#N)cc1)S(=O)(=O)N1CCN(c2ncnc3[nH]ccc23)CC12CC2 and report it.
# output 100 to 500 nM

# input Find the recorded EC50 belonging to COCCS(=O)(=O)N1CCC(CN(C)S(=O)(=O)N2CCN(c3ncnc4[nH]ccc34)CC23CC3)C1 (stereo not shown) and report it.
# output < 100 nM

# input Find the recorded EC50 belonging to CN(C)S(=O)(=O)N1CCN(c2ncnc3[nH]ccc23)CC12CC2 and report it.
# output < 100 nM

# input Find the recorded EC50 belonging to CN(C[C@H]1CCCN1C(=O)C(O)CO)S(=O)(=O)N1CCN(c2ncnc3[nH]ccc23)CC12CC2 (stereo partly shown) and report it.
# output < 100 nM

# input Find the recorded EC50 belonging to CN(Cc1ccc(C#N)cc1)S(=O)(=O)N1CCN(c2ncnc3[nH]ccc23)CC12CC2 and report it.
# output < 100 nM

# input Find the recorded EC50 belonging to CN(CC1CC1(F)F)S(=O)(=O)N1CCN(c2ncnc3[nH]ccc23)CC12CC2 (stereo not shown) and report it.
# output < 100 nM

# input Find the recorded EC50 belonging to CN(C[C@H]1CCCN1C=O)S(=O)(=O)N1CCN(c2ncnc3[nH]ccc23)CC12CC2 and report it.
# output < 100 nM

# input Find the recorded EC50 belonging to CN(C(=O)CC1CCCC1)S(=O)(=O)N1CCN(c2ncnc3[nH]ccc23)CC12CC2 and report it.
# output 100 to 500 nM

# input Find the recorded EC50 belonging to O=S(=O)(N(CCCO)CCc1ccccc1)N1CCN(c2ncnc3[nH]ccc23)CC12CC2 and report it.
# output < 100 nM

# input Find the recorded EC50 belonging to CN(CC1CCCN(S(=O)(=O)CCCC#N)C1)S(=O)(=O)N1CCN(c2ncnc3[nH]ccc23)CC12CC2 (stereo not shown) and report it.
# output 100 to 500 nM

# input Find the recorded EC50 belonging to O=S(=O)(N(Cc1ccccc1)Cc1ccccc1)N1CCN(c2ncnc3[nH]ccc23)CC12CC2 and report it.
# output > 500 nM

# input Find the recorded EC50 belonging to CN(C[C@@H]1CCCN1)S(=O)(=O)N1CCN(c2ncnc3[nH]ccc23)CC12CC2 and report it.
# output 100 to 500 nM

# input Find the recorded EC50 belonging to O=S(=O)(N(CCN1CCOCC1)C1CCC1)N1CCN(c2ncnc3[nH]ccc23)CC12CC2 and report it.
# output 100 to 500 nM

# input Find the recorded EC50 belonging to CC(=O)N(CC1CCS(=O)(=O)CC1)S(=O)(=O)N1CCN(c2ncnc3[nH]ccc23)CC12CC2 and report it.
# output < 100 nM

# input Find the recorded EC50 belonging to CCC(=O)N1CCC(CN(C)S(=O)(=O)N2CCN(c3ncnc4[nH]ccc34)CC23CC3)C1 (stereo not shown) and report it.
# output 100 to 500 nM

# input Find the recorded EC50 belonging to CC(=O)N(CC1CCS(=O)(=O)C1)S(=O)(=O)N1CCN(c2ncnc3[nH]ccc23)CC12CC2 (stereo not shown) and report it.
# output < 100 nM

# input Find the recorded EC50 belonging to N#CCCCN(CCCC#N)S(=O)(=O)N1CCN(c2ncnc3[nH]ccc23)CC12CC2 and report it.
# output < 100 nM

# input Find the recorded EC50 belonging to CCCS(=O)(=O)N1CCC(CN(C)S(=O)(=O)N2CCN(c3ncnc4[nH]ccc34)CC23CC3)C1 (stereo not shown) and report it.
# output < 100 nM

# input Find the recorded EC50 belonging to O=S(=O)(N(CCc1ccccc1)CCc1ccccc1)N1CCN(c2ncnc3[nH]ccc23)CC12CC2 and report it.
# output > 500 nM

# input Find the recorded EC50 belonging to CC#CCN(CCc1ccccc1)S(=O)(=O)N1CCN(c2ncnc3[nH]ccc23)CC12CC2 and report it.
# output 100 to 500 nM

# input Find the recorded EC50 belonging to CN(CC1CCCN(C(=O)CCC#N)C1)S(=O)(=O)N1CCN(c2ncnc3[nH]ccc23)CC12CC2 (stereo not shown) and report it.
# output 100 to 500 nM

# input Find the recorded EC50 belonging to CC(O)CC(=O)N1CCC(CN(C)S(=O)(=O)N2CCN(c3ncnc4[nH]ccc34)CC23CC3)C1 (stereo not shown) and report it.
# output 100 to 500 nM

# input Find the recorded EC50 belonging to CN(C[C@H]1CCCN1C(=O)CC#N)S(=O)(=O)N1CCN(c2ncnc3[nH]ccc23)CC12CC2 and report it.
# output < 100 nM

# input Find the recorded EC50 belonging to CN(CC1CC(F)(F)CN1)S(=O)(=O)N1CCN(c2ncnc3[nH]ccc23)CC12CC2 (stereo not shown) and report it.
# output < 100 nM

# input Find the recorded EC50 belonging to N#CCCCN(CCc1ccccc1)S(=O)(=O)N1CCN(c2ncnc3[nH]ccc23)CC12CC2 and report it.
# output < 100 nM

# input Find the recorded EC50 belonging to CN(CC12C3C4C1C1C2C3C41C#N)S(=O)(=O)N1CCN(c2ncnc3[nH]ccc23)CC12CC2 (stereo not shown) and report it.
# output < 100 nM

# input Find the recorded EC50 belonging to COCCN(CCc1ccccc1)S(=O)(=O)N1CCN(c2ncnc3[nH]ccc23)CC12CC2 and report it.
# output < 100 nM

# input Find the recorded EC50 belonging to Cc1noc(C)c1CCN(C)S(=O)(=O)N1CCN(c2ncnc3[nH]ccc23)CC12CC2 and report it.
# output < 100 nM
